Reported OD450 values for the following binders.
- study-target: T1, human CD22-ECD-His protein (human, UniProt P20273 20-687)
- T1 construct: Made in house in HEK293E; also called hCD22-ECD-His; recombinant human CD22-ECD His protein; not shown: His tag
- T1 sequence: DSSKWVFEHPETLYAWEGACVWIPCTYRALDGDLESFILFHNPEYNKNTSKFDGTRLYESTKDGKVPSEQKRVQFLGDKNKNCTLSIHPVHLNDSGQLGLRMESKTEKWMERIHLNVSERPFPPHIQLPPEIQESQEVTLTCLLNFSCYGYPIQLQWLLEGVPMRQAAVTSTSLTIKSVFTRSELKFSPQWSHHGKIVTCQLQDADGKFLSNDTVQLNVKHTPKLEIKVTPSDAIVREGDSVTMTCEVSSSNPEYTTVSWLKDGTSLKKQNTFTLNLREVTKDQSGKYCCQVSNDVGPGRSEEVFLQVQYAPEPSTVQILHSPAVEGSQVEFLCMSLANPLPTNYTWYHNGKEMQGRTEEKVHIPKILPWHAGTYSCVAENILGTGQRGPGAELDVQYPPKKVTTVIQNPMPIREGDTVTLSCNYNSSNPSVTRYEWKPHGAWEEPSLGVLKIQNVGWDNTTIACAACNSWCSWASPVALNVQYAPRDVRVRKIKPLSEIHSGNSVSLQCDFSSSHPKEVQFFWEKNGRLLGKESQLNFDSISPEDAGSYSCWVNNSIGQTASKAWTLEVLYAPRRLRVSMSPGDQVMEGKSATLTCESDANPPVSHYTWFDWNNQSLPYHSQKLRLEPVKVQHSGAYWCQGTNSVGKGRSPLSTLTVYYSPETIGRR
- experiment-description: ELISA, Ab 0.01 nM
Entry rule: numbers only, all in OD450.

| binder | OD450, OD450 |
| --- | --- |
| F2.121.9 (antibody, human IgG1, lambda, V domains shown, Human-murine chimeric IgG1, lambda) VH: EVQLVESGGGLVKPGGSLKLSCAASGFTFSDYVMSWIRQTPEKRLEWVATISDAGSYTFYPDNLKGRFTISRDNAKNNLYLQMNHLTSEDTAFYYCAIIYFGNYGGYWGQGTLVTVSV VL: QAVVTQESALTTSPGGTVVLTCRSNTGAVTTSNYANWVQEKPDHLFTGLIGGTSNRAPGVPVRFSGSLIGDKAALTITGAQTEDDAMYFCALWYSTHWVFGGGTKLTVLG | 1.6 |

response.value for F1.192.1 (antibody, human IgG1, kappa, V domains shown, Human-murine chimeric IgG1, kappa) VH: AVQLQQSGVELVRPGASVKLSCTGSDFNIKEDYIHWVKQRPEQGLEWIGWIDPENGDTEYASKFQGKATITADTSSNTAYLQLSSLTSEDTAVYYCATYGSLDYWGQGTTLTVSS VL: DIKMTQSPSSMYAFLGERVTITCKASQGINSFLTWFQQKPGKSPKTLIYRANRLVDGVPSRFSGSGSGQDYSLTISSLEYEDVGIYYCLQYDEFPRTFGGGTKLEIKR (field: OD450) = 1.79
